Assay type: physicochemical
Experimental conditions: lipid nanoparticle of the ionizable lipid (ionizable lipid/phospholipid/PEG lipid/structural lipid 50/10/1.5/38.5 %) with mRNA, Table 1
Please use condition met whenever Size (nm) is not below 100 nm, and condition not met whenever it is.

[
  {
    "Molecule": "CCCCCCCCCCCOC(=O)CCCCCN(CCCO)CCCCCCCC(=O)OCC(COCCCCCC)(COCCCCCC)COCCCCCC",
    "Classification": "condition not met"
  }
]

Please indicate if the recorded Size (nm) for `CCCCCCCCC(CCCCCCCC)OC(=O)CCCCCCCN(CCO)CCCCCCCC(=O)OC(COCCCCCC)COCCCCCC` meets or exceeds 100 nm.
condition not met

Is reported Size (nm) greater than or equal to 100 nm here: `CCCCCCOCC(COCCCCCC)OC(=O)CCCCCCCN(CCO)CCCCCCCC(=O)OC(COCCCCCC)COCCCCCC`
condition met

Is it the case that `CCCCC/C=C/C/C=C/CCCCCCCCN(CCO)CCCCCCCC(=O)OCC(COCCCCCC)(COCCCCCC)COCCCCCC` has Size (nm) reaching or exceeding 100 nm?
condition not met

Is Size (nm) for CCCCCCCCCCCOC(=O)CCCCCN(CCO)CCCCCC(=O)OCCCCCCCCCCC [A3, reference compound] at or above 100 nm?
condition met

Size (nm) >= 100 nm for `CCCCC/C=C/C/C=C/CCCCCCCCN(CCO)CCCCCC(=O)OCCCCCCCCCCC` ?
condition met

Say whether `CCCCC/C=C/C/C=C/CCCCCCCCN(CCCO)CCCCCCCC(=O)OCC(COCCCCCC)(COCCCCCC)COCCCCCC` shows Size (nm) of 100 nm or more.
condition not met

Decide: Size (nm) of `CCCCCCOCC(COCCCCCC)NC(=O)CCCCCCCN(CCCO)CCCCCCCC(=O)OC(COCCCCCC)COCCCCCC` >= 100 nm?
condition met

Form field: Size (nm) at least 100 nm? Entry: `CCCCCCOCC(COCCCCCC)OC(=O)CCCCCCCN(CCCO)CCCCCCCCCCCC(=O)OC(COCC)COCC`
condition met

====

Consider the following compounds and their measured Total photons number, Leg readings.
Tested on: BALB/c mice
Run description: Transfection efficiency: in vivo bioluminescence of luciferase mRNA encapsulated by different LNP
Experimental conditions: intramuscular injection, 5 μg/mice, 6 h
Description: All animals were kept in adaptive feeding for more than 7 days before experiments, free to uptake food and drink water during experimental period, illumination 12/12 h alternating light and dark, room temperature was 20-26° C., humidity was 40-70%. […] The fluorescence intensity and total photons number reflects the transfection efficiency of LNP, the value is higher, referring to the efficiency of delivering encapsulated substance into cell by LNP is higher.
I'd appreciate a reply containing only the number, no unit.

Some entries whose results are on file:
[
  {
    "Compound": "CCCCC/C=C/C/C=C/CCCCCCCCN(CCO)CCCCCCCC(=O)OCC(COCCCCCC)(COCCCCCC)COCCCCCC [A20]",
    "Value reported": "5.65E+08"
  },
  {
    "Compound": "CCCCCCCCCCCOC(=O)CCCCCN(CCO)CCCCCCCC(=O)OCC(COCCCCCC)(COCCCCCC)COCCCCCC [A23]",
    "Value reported": "2.68E+09"
  }
]

// below: Total photons number, Leg requested for another compound
What is its Total photons number, Leg for BALB/c mice? Entry: CCCCCCCCCCCOC(=O)CCCCCN(CCCO)CCCCCCCC(=O)OCC(COCCCCCC)(COCCCCCC)COCCCCCC [A22]
5.74E+09

====

Format: physicochemical
Experimental conditions: lipid nanoparticle of the ionizable lipid with mRNA, Table 1
Readout label: Encapsulated percentage (%)
Quick note: give the figure in %, leave out the unit.

These solved cases illustrate the format of a correct answer.
[
  {
    "Molecule": "CCCCCCOCC(COCCCCCC)OC(=O)CCCCCCCN(CCO)CCCCCCCC(=O)OC(COCCCCCC)COCCCCCC",
    "Unit abbreviation": "%",
    "Encapsulated percentage (%)": 93.58
  },
  {
    "Molecule": "CCCCC/C=C/C/C=C/CCCCCCCCN(CCCO)CCCCCCCC(=O)OC(CCCCCCCC)CCCCCCCC",
    "Unit abbreviation": "%",
    "Encapsulated percentage (%)": 94.63
  },
  {
    "Molecule": "CCCCCCCCCCCCCCCCN(CCO)CCCCCC(=O)OCCCCCCCCCCC",
    "Unit abbreviation": "%",
    "Encapsulated percentage (%)": 88.79
  },
  {
    "Molecule": "CCCCCCCCCCCOC(=O)CCCCCN(CCCO)CCCCCCCC(=O)OC(CCCCCCCC)CCCCCCCC [A4, reference compound]",
    "Unit abbreviation": "%",
    "Encapsulated percentage (%)": 79.24
  },
  {
    "Molecule": "CCCCCCOCC(COCCCCCC)OC(=O)CCCCCCCN(C)CCCNc1c(NCCCNc2c(NCCCN(C)CCCCCCCC(=O)OC(COCCCCCC)COCCCCCC)c(=O)c2=O)c(=O)c1=O",
    "Unit abbreviation": "%",
    "Encapsulated percentage (%)": 94.19
  }
]

What does the record list as Encapsulated percentage (%) for `CCCCCCOCC(COCCCCCC)(COCCCCCC)COC(=O)CCCCCCCN(CCO)CCCCCCCC(=O)OCC(COCCCCCC)(COCCCCCC)COCCCCCC` ?
96.77

What measured Encapsulated percentage (%) goes with `CCCCC/C=C/C/C=C/CCCCCCCCN(CCCO)CCCCCC(=O)OCCCCCCCCCCC` ?
86.53

What does the record list as Encapsulated percentage (%) for `CCCCC/C=C/C/C=C/CCCCCCCCN(CCO)CCCCCCCC(=O)OC(COCCCCCC)COCCCCCC` ?
82.65

What does the record list as Encapsulated percentage (%) for `CCCCCCCCC(CCCCCCCC)OC(=O)CCCCCCCN(CCCO)CCCCCCCC(=O)OC(COCCCCCC)COCCCCCC` ?
92.99

What value of measured Encapsulated percentage (%) is listed for `CCCCCCOCC(COCCCCCC)OC(=O)CCCCCCCN(CCCO)CCCCCCCC(=O)OC(COCCCCCC)COCCCCCC` ?
88.00

Please look up its Encapsulated percentage (%): `CCCCCCOCC(COCCCCCC)NC(=O)CCCCCCCN(CCCO)CCCCCCCC(=O)OC(COCCCCCC)COCCCCCC`
83.60

Encapsulated percentage (%) lookup needed for `CCCCCCCCCCCOC(=O)CCCCCN(CCCO)CCCCCCCC(=O)OCC(COCCCCCC)(COCCCCCC)COCCCCCC` , thanks.
96.85

What measured Encapsulated percentage (%) goes with `CCCCCCOCC(COCCCCCC)OC(=O)CCCCCCCN(CCCCCCCC(=O)OC(COCCCCCC)COCCCCCC)CCCNc1c(NC)c(=O)c1=O` ?
89.72

# get_value(readout='Encapsulated percentage (%)', item= `CCCCC/C=C/C/C=C/CCCCCCCCN(CCCO)CCCCCCCC(=O)OCC(COCCCCCC)(COCCCCCC)COCCCCCC` )
97.20

====

Type: physicochemical
Experimental conditions: lipid nanoparticle of the ionizable lipid (ionizable lipid/phospholipid/PEG lipid/structural lipid 50/10/1.5/38.5 %) with mRNA, Table 1
So basically: is Size (nm) under 100 nm? Then true. Not under? Then false.

Here are 3 compounds together with their reported answers.
[
  {
    "Compound": "CCCCCCCCCCCOC(=O)CCCCCN(CCCCCCCC(=O)OC(COCCCCCC)COCCCCCC)CCCNc1c(NC)c(=O)c1=O",
    "Classification": "true"
  },
  {
    "Compound": "CCCCCCCCC(CCCCCCCC)OC(=O)CCCCCCCN(CCCO)CCCCCCCC(=O)OC(CCCCCCCC)CCCCCCCC",
    "Classification": "false"
  },
  {
    "Compound": "CCCCCCCCCCCOC(=O)CCCCCN(CCCO)CCCCCC(=O)OCCCCCCCCCCC",
    "Classification": "false"
  }
]

I wonder whether `CCCCCCOCC(COCCCCCC)OC(=O)CCCCCCCN(CCCCCCCC(=O)OC(COCCCCCC)COCCCCCC)CCCNc1c(NCCCNc2c(NCCCN(CCCCCCCC(=O)OC(COCCCCCC)COCCCCCC)CCCCCCCC(=O)OC(COCCCCCC)COCCCCCC)c(=O)c2=O)c(=O)c1=O` has Size (nm) below 100 nm. Can you tell?
false

Does `CCCCC/C=C/C/C=C/CCCCCCCCN(CCCO)CCCCCC(=O)OCCCCCCCCCCC` have Size (nm) strictly under 100 nm?
false

Problem: For the compound `CCCCCCOCC(COCCCCCC)OC(=O)CCCCCCCN(C)CCCNc1c(NCCCNc2c(NCCCN(C)CCCCCCCC(=O)OC(COCCCCCC)COCCCCCC)c(=O)c2=O)c(=O)c1=O` , is Size (nm) under 100 nm?
false
